meta.source: patent US20210292393A1

molecular target: SARS-CoV spike protein (full-length trimeric, conjugated to optically encoded beads) (SARS-CoV, UniProt P59594 14-1190)
Overview of recorded fold over isotype control (median fluorescence intensity) for various binders
measure: fold over isotype control (median fluorescence intensity) (fold over isotype)

[
  {
    "binder": "antibody 571 (antibody, V domains shown) VH: EVQLVESGGGLVQPGGSLRLSCAASGFTFSTYWMTWVRQAPGKGLEWVANIKHDGSGKYHVDSVKGRFTISRDNAKNSLYLQMNSLRAEDTAVYYCTRDEGGWYDYWGQGTLVTVSS VL: QSALTQPASVSGSPGQSITISCTGTSSDVGSYNPVSWYQQHPGKAPKVMIYEGSKRPSGVSNRFSGSKSGNTASLTISGLQAEDEADYYCCSYARSSTFVVFGGGTKLTVL",
    "measured_value": 1.28
  },
  {
    "binder": "antibody 556 (antibody, V domains shown) VH: QVQLVESGGGVVQPGRSLRLSCAASGFTFSSYAMHWVRQAPGKGLEWVAVISYDGSDKYYADSVKGRVTISRDNSKNTLYLQMNSLRVEDTAVFYCAKDDCSGGVCFPDYWGQGTLVTVSS VL: QSALTQPASVSGSPGQSITISCTGTSSDVGGYNYVSWYQQHPGKAPKLMIYEVSIRPSGVSNRFSGSKSGNTASLTISGLQAEDEAAYYCSSYTSSSTLVFGGGTKLTVL",
    "measured_value": 1.09
  },
  {
    "binder": "antibody 569 (antibody, V domains shown) VH: QVQLVESGGGVVQPGRSLRLSCAASGFTFSSYAMHWVRQAPGKGLEWVAVISYDGSNKYYADSVKGRFTISRDNSKNTLYLQMNSLRAEDTAVYYCARASSGGYQGPFDPWGQGTLVTVSS VL: EIVLTQSPATLSLSPGERATLSCRASQSVSSYLAWYQQKPGQAPRLLIYDASNRATGIPARFSGSGSGTDFTLTISSLEPEDFAVYYCQQRSSPFGPGTKVDIK",
    "measured_value": 3.31
  }
]
